# ASSAY SYSTEM: CYP3A4 (Homo sapiens (Human), UniProt P08684)
# Sequence (P08684 whole entry): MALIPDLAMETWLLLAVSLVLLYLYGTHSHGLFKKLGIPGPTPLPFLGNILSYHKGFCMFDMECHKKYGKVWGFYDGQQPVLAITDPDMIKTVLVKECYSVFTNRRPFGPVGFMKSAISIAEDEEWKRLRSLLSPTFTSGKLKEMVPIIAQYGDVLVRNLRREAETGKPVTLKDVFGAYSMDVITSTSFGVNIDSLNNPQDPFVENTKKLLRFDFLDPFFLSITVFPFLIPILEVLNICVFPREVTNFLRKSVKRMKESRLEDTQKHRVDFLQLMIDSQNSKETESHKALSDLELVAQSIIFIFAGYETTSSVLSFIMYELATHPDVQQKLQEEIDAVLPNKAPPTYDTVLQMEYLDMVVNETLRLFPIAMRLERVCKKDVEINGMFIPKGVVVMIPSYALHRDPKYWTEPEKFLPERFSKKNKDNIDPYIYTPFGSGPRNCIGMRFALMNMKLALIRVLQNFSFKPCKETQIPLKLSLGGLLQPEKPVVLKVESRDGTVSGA
# ASSAY PROTOCOL: Mechanism based inhibition of CYP3A4 assay (MBI 3A4)
# Type: in vitro ADME
# TEST SETTINGS: hydroxy-midazolam formation after 30 min vs 0 min preincubation, 25 uM, human liver microsomes
MEASURE: MBI 3A4 (%)

[
  {
    "SMILES TEXT": "C[C@H](Oc1cc(N2CCNC[C@]23CCOC3)nc(-c2noc3c2CCC[C@@]32CCCc3sc(N)c(C#N)c32)n1)[C@@H]1CCCN1C",
    "VALUE REPORTED": 54
  },
  {
    "SMILES TEXT": "C[C@H](Oc1cc([C@H]2CCOC2)nc(-c2noc3c2CCC[C@@]32CCCc3sc(N)c(C#N)c32)n1)[C@@H]1CCCN1C",
    "VALUE REPORTED": 77
  },
  {
    "SMILES TEXT": "C[C@H](Oc1cc(-n2ccc(-c3cnccn3)n2)nc(-c2noc3c2CCC[C@@]32CCCc3sc(N)c(C#N)c32)n1)[C@@H]1CCCN1C",
    "VALUE REPORTED": 67
  }
]

----------
# Test system: SAS cells
# ASSAY PROTOCOL: SAS CTG proliferation assay (120 h) (HNSCC, wt amplified)
# Assay type: cell-based
Exam item: assign MET to entries whose IC50 is below 50 nM and NOT MET to entries at or above 50 nM. Note that a value of exactly 50 nM receives NOT MET.

[
  {
    "MOLECULE": "C[C@H](Oc1cc(-c2ccn(C3CC3)n2)nc(-c2noc3c2CCC[C@@]32CCCc3sc(N)c(C#N)c32)n1)[C@@H]1CCCN1C [II-98]",
    "ASSIGNED LABEL": "MET"
  },
  {
    "MOLECULE": "C[C@H](Oc1cc(N2Cc3cnn(C)c3C2)nc(-c2onc3c2CCC[C@@]32CCCc3sc(N)c(C#N)c32)n1)[C@@H]1CCCN1C [I-19]",
    "ASSIGNED LABEL": "NOT MET"
  },
  {
    "MOLECULE": "CO[C@@H]1C[C@@H]([C@H](C)Oc2cc(N3CCN(C)C4(CC4)C3)nc(-c3noc4c3CCC[C@@]43CCCc4sc(N)c(C#N)c43)n2)N(C)C1 [II-152]",
    "ASSIGNED LABEL": "NOT MET"
  },
  {
    "MOLECULE": "C[C@H](Oc1cc([C@H]2CCN(C)C2)nc(-c2noc3c2CCC[C@@]32CCCc3sc(N)c(C#N)c32)n1)[C@@H]1CCCN1C [II-38]",
    "ASSIGNED LABEL": "MET"
  },
  {
    "MOLECULE": "C[C@H](Oc1cc(-n2ccnc2)nc(-c2onc3c2CCC[C@@]32CCCc3sc(N)c(C#N)c32)n1)[C@@H]1CCCN1C [I-20]",
    "ASSIGNED LABEL": "MET"
  },
  {
    "MOLECULE": "C[C@H](Oc1cc(-n2cccc3cnnc2-3)nc(-c2noc3c2CCC[C@@]32CCCc3sc(N)c(C#N)c32)n1)[C@@H]1CCCN1C [II-92]",
    "ASSIGNED LABEL": "NOT MET"
  }
]
